# Tested On: human D4 receptors (Homo sapiens, UniProt P21917)
# Construct: expressed in transfected cells
# Sequence (P21917 1-419): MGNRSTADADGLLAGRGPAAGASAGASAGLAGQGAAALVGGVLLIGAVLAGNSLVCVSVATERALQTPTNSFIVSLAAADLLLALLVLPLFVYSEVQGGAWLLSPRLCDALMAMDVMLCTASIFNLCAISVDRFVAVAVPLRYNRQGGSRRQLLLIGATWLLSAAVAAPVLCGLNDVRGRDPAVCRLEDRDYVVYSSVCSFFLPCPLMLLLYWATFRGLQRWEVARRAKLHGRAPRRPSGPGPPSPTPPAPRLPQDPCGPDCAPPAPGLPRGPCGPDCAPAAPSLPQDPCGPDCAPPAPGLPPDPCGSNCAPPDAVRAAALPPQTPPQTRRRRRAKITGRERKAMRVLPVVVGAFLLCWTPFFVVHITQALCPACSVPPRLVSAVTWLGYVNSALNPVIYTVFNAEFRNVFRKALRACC
# Method Notes: Functional antagonist assay: reversal of dopamine inhibition of forskolin-stimulated adenyl cyclase (cAMP)
# Type: cell-based
# Condition: 1 μM; dopamine and forskolin both 10 μM; read-out: % REVERSAL OF DOPAMINE EFFECT
Measurement Kind: inhibition at 1 µM (%)

Structure Notation | Unit Symbol | Value
Clc1ccc2c(c1)C=C(N1CCN(Cc3ccc4c(c3)OCO4)CC1)c1ccccc1S2 | % | 47
c1ccc2c(c1)N=C(N1CCN(Cc3ccc4c(c3)OCO4)CC1)c1ccccc1O2 | % | 40

P = Clc1ccc2c(c1)N=C(N1CCN(Cc3ccc4c(c3)OCO4)CC1)c1ccccc1O2
Q = Clc1ccc2c(c1)Nc1ccccc1N=C2N1CCN(Cc2ccc3c(c2)OCO3)CC1
Input line: Could you kindly indicate whether P or Q has the higher inhibition at 1 µM value? Answer = label.
Output line: P

###

# Tested On: human D2 receptor (short isoform) (Homo sapiens)
# Construct: membrane homogenate, 3H-spiperone displacement
# Sequence (P14416 with tags, fused parts or gaps DEL242-270): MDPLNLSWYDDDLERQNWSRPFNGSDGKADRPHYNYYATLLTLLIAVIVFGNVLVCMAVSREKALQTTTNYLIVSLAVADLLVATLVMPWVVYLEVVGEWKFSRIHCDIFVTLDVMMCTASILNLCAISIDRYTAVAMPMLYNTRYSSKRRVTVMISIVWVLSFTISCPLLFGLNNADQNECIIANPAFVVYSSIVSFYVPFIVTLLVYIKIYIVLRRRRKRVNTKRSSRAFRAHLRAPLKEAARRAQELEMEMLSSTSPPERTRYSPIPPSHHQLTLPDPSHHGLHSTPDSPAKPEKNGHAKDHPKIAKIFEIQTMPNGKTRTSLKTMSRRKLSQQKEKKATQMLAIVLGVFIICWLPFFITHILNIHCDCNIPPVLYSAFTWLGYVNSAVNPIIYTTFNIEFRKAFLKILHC
# Method Notes: D2 receptor binding, displacement of 3H-spiperone (GH4C1 cells), for D2/D4 selectivity
# Condition: D4 selectivity, ratio D2/D4
Measurement Kind: D2/D4

Some solved entries appear below for comparison.
Structure Notation | D2/D4
Clc1ccc2c(c1)Nc1ccccc1N=C2N1CCN(Cc2ccc3c(c2)OCO3)CC1 | 24.9
c1ccc2c(c1)N=C(N1CCN(Cc3ccc4c(c3)OCO4)CC1)c1ccccc1N2 | 6
O=[N+]([O-])c1ccc2c(c1)C=C(N1CCN(Cc3ccc4c(c3)OCO4)CC1)c1ccccc1S2 | 281
COc1ccc2c(c1)C(N1CCN(Cc3ccc4c(c3)OCO4)CC1)=Nc1ccccc1N2 | 5.1
Clc1ccc2c(c1)C(N1CCN(Cc3ccc4c(c3)OCO4)CC1)=Nc1cc(Cl)c(Cl)cc1N2 | 15.7
Clc1ccc2c(c1)C(N1CCN(Cc3ccc4c(c3)OCO4)CC1)=Nc1ccccc1N2 | 7.3
c1ccc2c(c1)N=C(N1CCN(Cc3ccc4c(c3)OCO4)CC1)c1ccccc1O2 | 32.7

I = Clc1ccc2c(c1)N=C(N1CCN(Cc3ccc4c(c3)OCO4)CC1)c1ccccc1S2
II = Cc1ccc2c(c1)N=C(N1CCN(Cc3ccc4c(c3)OCO4)CC1)c1ccccc1O2
Input line: Could you kindly indicate whether I or II has the higher D2/D4 value? Answer = label.
Output line: I
(I: 63, II: 9.8)

###

# Tested On: human D4 receptor (D4.2 sub-type) (Homo sapiens, UniProt P21917, DEL265-296)
# Construct: homogenate of stably transfected cells
# Sequence (P21917 with tags, fused parts or gaps DEL265-296): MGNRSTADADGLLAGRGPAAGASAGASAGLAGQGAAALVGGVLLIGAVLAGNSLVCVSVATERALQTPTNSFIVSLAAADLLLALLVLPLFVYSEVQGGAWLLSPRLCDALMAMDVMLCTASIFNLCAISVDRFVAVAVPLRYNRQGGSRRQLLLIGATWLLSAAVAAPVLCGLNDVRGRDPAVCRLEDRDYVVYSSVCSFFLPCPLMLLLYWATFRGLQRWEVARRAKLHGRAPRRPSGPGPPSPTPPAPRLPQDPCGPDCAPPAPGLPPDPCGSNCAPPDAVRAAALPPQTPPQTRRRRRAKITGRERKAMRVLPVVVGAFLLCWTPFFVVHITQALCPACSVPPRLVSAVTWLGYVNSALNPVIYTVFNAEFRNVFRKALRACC
# Method Notes: D4 receptor binding, displacement of 3H-spiperone
# Condition: human D4 receptor; 3H-spiperone 0.25 nM
Measurement Kind: Ki (nM)

Structure Notation | Unit Symbol | Value
Clc1cccc2c1Oc1ccccc1N=C2N1CCN(Cc2ccc3c(c2)OCO3)CC1 | nM | 57
c1ccc2c(c1)N=C(N1CCN(Cc3ccc4c(c3)OCO4)CC1)c1ccccc1N2 | nM | 63
c1ccc2c(c1)N=C(N1CCN(Cc3ccc4c(c3)OCO4)CC1)c1ccccc1O2 | nM | 30
Clc1cccc2c1Nc1ccccc1N=C2N1CCN(Cc2ccc3c(c2)OCO3)CC1 | nM | 34

1 = N#Cc1cccc2c1Oc1ccccc1N=C2N1CCN(Cc2ccc3c(c2)OCO3)CC1
2 = Clc1ccc2c(c1)C=C(N1CCN(Cc3ccc4c(c3)OCO4)CC1)c1ccccc1S2
3 = Cc1cc2c(cc1C)Nc1ccccc1C(N1CCN(Cc3ccc4c(c3)OCO4)CC1)=N2
4 = O=[N+]([O-])c1ccc2c(c1)C=C(N1CCN(Cc3ccc4c(c3)OCO4)CC1)c1ccccc1S2
Input line: Arrange these compounds by their Ki, starting with the largest number. Answer by listing the labels in the requested order.
Output line: 3, 1, 4, 2

A = Cc1ccc2c(c1)N=C(N1CCN(Cc3ccc4c(c3)OCO4)CC1)c1ccccc1O2
B = COc1ccc2c(c1)C(N1CCN(Cc3ccc4c(c3)OCO4)CC1)=Nc1ccccc1N2
C = Clc1cc2c(cc1Cl)Nc1ccccc1C(N1CCN(Cc3ccc4c(c3)OCO4)CC1)=N2
D = Clc1ccc2c(c1)N=C(N1CCN(Cc3ccc4c(c3)OCO4)CC1)c1ccccc1O2
E = Clc1ccc2c(c1)Nc1ccccc1N=C2N1CCN(Cc2ccc3c(c2)OCO3)CC1
Input line: Arrange these compounds by their Ki, starting with the largest number. Answer by listing the labels in the requested order.
Output line: A, C, E, B, D

###

# Tested On: human D2 receptor (short isoform) (Homo sapiens)
# Construct: membrane homogenate, 3H-spiperone displacement
# Method Notes: D2 receptor binding, displacement of 3H-spiperone (GH4C1 cells), for D2/D4 selectivity
# Condition: D4 selectivity, ratio D2/D4
Measurement Kind: D2/D4

Some solved entries appear below for comparison.
Structure Notation | D2/D4
FC(F)(F)c1ccc2c(c1)C(N1CCN(Cc3ccc4c(c3)OCO4)CC1)=Nc1ccccc1N2 | 1.9
Clc1ccc2c(c1)C=C(N1CCN(Cc3ccc4c(c3)OCO4)CC1)c1ccccc1S2 | 15.9
Cc1cc2c(cc1C)Nc1ccccc1C(N1CCN(Cc3ccc4c(c3)OCO4)CC1)=N2 | 14.1
N#Cc1cccc2c1Oc1ccccc1N=C2N1CCN(Cc2ccc3c(c2)OCO3)CC1 | 82.1
Clc1cccc2c1Nc1ccccc1N=C2N1CCN(Cc2ccc3c(c2)OCO3)CC1 | 10.6
Clc1cccc2c1Oc1ccccc1N=C2N1CCN(Cc2ccc3c(c2)OCO3)CC1 | 99.2
Clc1cc2c(cc1Cl)Nc1ccccc1C(N1CCN(Cc3ccc4c(c3)OCO4)CC1)=N2 | 27.4

A = Clc1ccc2c(c1)N=C(N1CCN(Cc3ccc4c(c3)OCO4)CC1)c1ccccc1O2
B = O=[N+]([O-])c1cccc2c1Oc1ccccc1N=C2N1CCN(Cc2ccc3c(c2)OCO3)CC1
Input line: Could you kindly indicate whether A or B has the higher D2/D4 value? Answer = label.
Output line: B

###

# Tested On: human D4 receptor (D4.2 sub-type) (Homo sapiens, UniProt P21917, DEL265-296)
# Construct: expressed in transfected cells; host or cells: HEK 298 (human embryonic kidney) cells, [sic]; homogenate of stably transfected cells
# Sequence (P21917 with tags, fused parts or gaps DEL265-296): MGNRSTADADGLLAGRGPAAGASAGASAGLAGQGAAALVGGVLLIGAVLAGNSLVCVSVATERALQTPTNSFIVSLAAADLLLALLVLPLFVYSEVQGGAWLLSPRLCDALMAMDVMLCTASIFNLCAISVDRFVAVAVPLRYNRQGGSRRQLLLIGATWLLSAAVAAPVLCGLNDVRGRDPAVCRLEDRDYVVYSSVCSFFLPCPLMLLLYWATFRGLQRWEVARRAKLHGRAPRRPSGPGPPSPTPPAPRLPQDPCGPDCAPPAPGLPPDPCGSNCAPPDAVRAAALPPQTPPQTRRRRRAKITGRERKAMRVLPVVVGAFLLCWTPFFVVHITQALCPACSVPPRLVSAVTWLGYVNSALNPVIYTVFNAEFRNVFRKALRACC
# Method Notes: D4 receptor binding, displacement of 3H-spiperone
# Condition: human D4 receptor; 3H-spiperone 0.25 nM
pKi: −log10 of the molar value.
Measurement Kind: pKi

Some solved entries appear below for comparison.
Structure Notation | pKi
O=[N+]([O-])c1cccc2c1Oc1ccccc1N=C2N1CCN(Cc2ccc3c(c2)OCO3)CC1 | 7.61
Clc1ccc2c(c1)N=C(N1CCN(Cc3ccc4c(c3)OCO4)CC1)c1ccccc1S2 | 7.62
FC(F)(F)c1ccc2c(c1)C(N1CCN(Cc3ccc4c(c3)OCO4)CC1)=Nc1ccccc1N2 | 7.13

1 = Clc1ccc2c(c1)C(N1CCN(Cc3ccc4c(c3)OCO4)CC1)=Nc1ccccc1N2
2 = Clc1ccc2c(c1)C(N1CCN(Cc3ccc4c(c3)OCO4)CC1)=Nc1cc(Cl)c(Cl)cc1N2
Input line: Could you kindly indicate whether 1 or 2 has the higher pKi value? Answer = label.
Output line: 1
